FYI, the data here is from ChEMBL document CHEMBL1156829.

System: Plasmodium falciparum
test.name: NOVARTIS: Inhibition of Plasmodium falciparum W2 (drug-resistant) proliferation in erythrocyte-based infection assay
Type: functional, organism-based
test.parameters: Plasmodium falciparum, W2; read-out: EC50
readout: pEC50
The value called pEC50 is obtained by taking minus log10 of the concentration in mol/L.

Illustrative cases are given below, each with its answer.
compound	readout.value
N#Cc1cccc(C=CC(=O)O)c1	5.91
COc1ccc(OC)c(-c2ccc(O)c(CNCC(C)C)c2)c1	6.11
CC1CNC(c2ccc(NC(=O)c3ccc(C(=O)Nc4ccc(C5=NC(C)CN5)cc4)c(N)c3)cc2)=N1 (stereo not given)	7.65

Note: attention shifts to another entry.
For this compound ( CCN(CC)CCCNC(=S)N(Cc1ccccc1)Cc1cc2cc(C)c(Cl)cc2[nH]c1=O ), measured pEC50 is 5.93

###

// CC50 lookup, one value per entry
test.name: NOVARTIS: Cytotoxicity against human hepatocellular carcinoma cell line (Huh7)
Assay type: toxicity, cell-based, Huh-7
test.parameters: Huh7 cells (hepatocellular carcinoma cell line)

These solved cases illustrate the format of a correct answer.
compound	CC50
COC(=O)CNC(=O)c1sc2ncn(CC(=O)Nc3ccccc3OC)c(=O)c2c1C	> 10 µM
CC(=O)Oc1ccccc1-c1nc2ccccn2c1NC(C)(C)CC(C)(C)C	> 9.44 µM
Cc1cccc2nc(N)nc(N)c12	> 10 µM
COC(CNC(=O)c1c[nH]c2ccc(S(=O)(=O)N3CCN(C)CC3)cc2c1=O)OC	> 100 µM
COc1ccc(N2CCN(C(CNC(=O)CC(C)C)c3ccco3)CC2)cc1 (configuration not stated)	> 100 µM

The compound C=CC[n+]1c(C=C2C=CN(C)C=C2)sc2ccccc21 showed CC50 equal to 24.6 µM

For reference, reported CC50 for O=C(CN1CCCC1C(c1ccccc1)c1ccccc1)N1CCSCC1 (configuration not stated) stands at 12 µM

For reference, reported CC50 for COc1ccc2c(c1OC)C(=O)N1c3ccccc3N=C(c3ccc(I)cc3)CC21 (configuration not stated) stands at > 100 µM

The reported CC50 of the compound CCc1ccc(-n2c(C(CC)N(CCc3ccccc3)C(=O)c3cc(OC)cc(OC)c3)nc3ccccc3c2=O)cc1 (configuration not stated) was > 10 µM

Entry COc1cc(-c2nc(-c3ccccc3)c(-c3ccc(O)cc3)[nH]2)cc(OC)c1O ; CC50 = > 10 µM

// field: CC50; key: Cc1c(C#N)c2ccccc2n1CC(=O)NCCc1ccccc1 ; value = > 100 µM

The reported value for O=C(C1CCC(Cn2c(=S)[nH]c3ccccc3c2=O)CC1)N1CC=C(c2ccccc2)CC1 (configuration not stated) in terms of CC50 is > 10 µM

Please fill in: CC50 reported for O=C1Cc2ccccc2C(=C2CCNCC2)c2ccsc21 = > 10 µM

Looking up CCOc1ccc(-c2nc(NC(=O)Cc3cccc(OC)c3)sc2C)cc1 , I found its CC50 recorded as > 10 µM

Given item Cn1nc(C(=O)Nc2ccc(F)c(Cl)c2)c2c1-c1ccccc1S(=O)(=O)C2 , the value recorded as its CC50 is > 100 µM

Just so you know, measured CC50 for CCN1CCN(CCCNC(=S)Nc2ccc3nc(N4CCCC4)cc(C)c3c2)CC1 came out at 44.2 µM

Recorded CC50 (compound COc1ccc(-c2nnc(NC(=O)CCN(CCc3ccc(OC)c(OC)c3)C(=O)c3cccc4ccccc34)s2)cc1 ): > 13.6 µM

Sample COc1ccc2c(C)nc(Nc3nc(C)cc(-c4ccccc4)n3)nc2c1 ; CC50 observed: > 100 µM

compound COc1cc(-c2nc(-c3ccc(Sc4ccccc4)cc3)c(-c3ccccc3)[nH]2)cc(OC)c1O , CC50 observed: 64.3 µM

Briefly, CC50 measured for COc1cc(NCCCC(C)N)c2ncccc2c1 (configuration not stated) : 14.4 µM

The reported CC50 of the compound CCOC(=O)COC1=C(CCCCC2CCCCC2)C(=O)c2ccccc2C1=O was 31 µM

Reported CC50 ( NC(=O)CN1CC(O)CC1=O (configuration not stated) ) = 57.5 µM
